Values were extracted from patent US20240325555A1.

Biological target: T1, human LIV-1 (human, UniProt Q13433 29-755)
T1 sequence (looked up): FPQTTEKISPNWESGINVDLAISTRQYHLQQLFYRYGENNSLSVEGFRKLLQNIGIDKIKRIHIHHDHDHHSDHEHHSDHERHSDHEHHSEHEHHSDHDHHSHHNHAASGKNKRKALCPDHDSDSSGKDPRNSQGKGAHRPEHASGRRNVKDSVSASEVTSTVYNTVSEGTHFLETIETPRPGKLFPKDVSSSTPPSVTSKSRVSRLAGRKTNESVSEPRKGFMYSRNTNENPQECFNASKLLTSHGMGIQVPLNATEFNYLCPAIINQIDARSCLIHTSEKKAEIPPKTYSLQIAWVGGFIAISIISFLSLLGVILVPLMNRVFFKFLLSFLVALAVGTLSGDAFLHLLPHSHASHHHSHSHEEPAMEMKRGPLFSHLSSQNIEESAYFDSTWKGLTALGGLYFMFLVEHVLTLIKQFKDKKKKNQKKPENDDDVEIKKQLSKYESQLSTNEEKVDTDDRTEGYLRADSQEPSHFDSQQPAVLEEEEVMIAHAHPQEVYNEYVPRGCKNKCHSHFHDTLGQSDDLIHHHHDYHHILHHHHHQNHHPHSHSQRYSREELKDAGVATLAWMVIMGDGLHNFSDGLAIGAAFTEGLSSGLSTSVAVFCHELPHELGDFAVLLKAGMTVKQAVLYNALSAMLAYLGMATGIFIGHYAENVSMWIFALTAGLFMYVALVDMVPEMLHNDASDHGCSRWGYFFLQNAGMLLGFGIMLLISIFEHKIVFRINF
Assay: cell-based or functional assay
quantity name: ADCC reporter EC50 (nM)

[[record]]
binder = "109C9D4 (antibody, V domains shown, Tested as chimeric antibody) VH: EVKLVESGGGLVQPGGSRKLSCAASGFTFSDYGMAWVRQAPGKGPEWVTFISNLAYSIYYADTVTGRFTISRENAKNTLYLEMSSLRSEDTAMYYCARVEENGNYFDYWGQGTTLTVSS VL: DIQMTQTTSSLSASLGDRVTIRCRASQDIGIYLHWYQQKPDGTVKLLIYYTSRLHSGVPSRFSGSRSGTDYSLTIGNLEQEDIATYFCLQGNTIPPTFGGGTKLEIK"
display_unit = "nM"
meas_value = 4.1

